Subject Of Test: hGPR40 (Homo sapiens, UniProt O14842)
Construct: 3x FLAG
Sequence (O14842 whole entry): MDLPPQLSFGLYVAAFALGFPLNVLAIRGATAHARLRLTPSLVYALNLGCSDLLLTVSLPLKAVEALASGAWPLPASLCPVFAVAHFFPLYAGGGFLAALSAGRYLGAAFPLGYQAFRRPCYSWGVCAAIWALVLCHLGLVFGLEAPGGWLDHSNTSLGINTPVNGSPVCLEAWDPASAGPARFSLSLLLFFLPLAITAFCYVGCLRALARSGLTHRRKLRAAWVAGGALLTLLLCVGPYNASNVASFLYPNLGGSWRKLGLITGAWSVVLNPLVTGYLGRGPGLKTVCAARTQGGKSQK
Assay Name: FDSS-Based Intracellular Calcium Assay
Particulars: cells expressing GPR40, intracellular Ca2+ response
Measure: pEC50
pEC50 field: float, defined as -log10 of concentration (mol/L).

1) COc1ccc(F)c(-c2ccc(Cc3ccc(N4N=C(C(F)(F)F)C(c5ccccc5)C4CC(=O)O)cc3)c(C)c2)c1 (single isomer, unassigned) [Example 47, Isomer 2]; 5.23
2) COc1ccc(F)c(-c2ccc(Cc3ccc(N4N=C(C#N)C(C)C4CC(=O)O)cc3)c(C)c2)c1 (single isomer, unassigned) [Example 52, Isomer 2]; 6.52
3) O=C(O)CC1CC(C(F)(F)F)=NN1c1ccc(OCc2ccc(Cl)cc2Cl)cc1 (racemic) [Example 2]; 6.10
4) COc1ccc(F)c(-c2ccc(Cc3ccc(N4N=C(C(F)(F)F)C(C)(C)C4CC(=O)O)cc3)c(C)c2)c1 (single isomer, unassigned) [Example 50, Isomer 1]; 6.66
5) Cc1ccccc1Oc1ccc(N2N=C(C(F)(F)F)CC2CC(=O)O)cc1 (single isomer, unassigned) [Example 11, Isomer 1]; 7.15

Turning now to a further compound:
-- ask What pEC50 value was documented for this compound, COc1ccc(F)c(-c2ccc(Cc3ccc(N4N=C(c5ccc(Cl)cc5)[C@@H](C)[C@@H]4CC(=O)O)cc3)c(C)c2)c1 (single isomer, unassigned) [Example 66, isomer 2] ?
-- reply 6.29

====

Subject Of Test: hGPR40 (Homo sapiens)
Construct: 3x FLAG
Assay Name: FDSS-Based Intracellular Calcium Assay
Particulars: cells expressing GPR40, intracellular Ca2+ response
This section presents compounds with their documented pEC50 values.
pEC50 field: float, defined as -log10 of concentration (mol/L).

-- ask hGPR40 (Homo sapiens) / pEC50 / COc1ccc(F)c(-c2ccc(Cc3ccc(N4N=C(C(F)(F)F)C(C)C4CC(=O)O)cc3)c(Cl)c2)c1 (single isomer, unassigned) [Example 60, Isomer 2] : value?
-- reply 7.40

====

Subject Of Test: hGPR40 (Homo sapiens)
Construct: 3x FLAG
Assay Name: FDSS-Based Intracellular Calcium Assay
Particulars: cells expressing GPR40, intracellular Ca2+ response
This section presents compounds with their documented pEC50 values.
pEC50 field: float, defined as -log10 of concentration (mol/L).

As a guide, the following entries are already answered.
1) COc1ccc(F)c(-c2ccc(Cc3ccc(N4N=C(c5ccccc5)C(C)C4CC(=O)O)cc3)c(C)c2)c1 (single isomer, unassigned) [Example 59, Isomer 2]; 8.22
2) COc1ccc(F)c(-c2ccc(Oc3ccc(N4N=C(c5ncco5)CC4CC(=O)O)cc3)c(C)c2)c1 (single isomer, unassigned) [Example 8, Isomer 2]; 5.94

Turning now to a further compound:
-- ask What pEC50 value was documented for this compound, COc1ccc(F)c(-c2ccc(Oc3ccc(N4N=C(c5ncco5)CC4CC(=O)O)cc3)c(C)c2)c1 (single isomer, unassigned) [Example 8, Isomer 1] ?
-- reply 6.04

====

Subject Of Test: hGPR40 (Homo sapiens)
Construct: 3x FLAG
Assay Name: FDSS-Based Intracellular Calcium Assay
Particulars: cells expressing GPR40, intracellular Ca2+ response
Measure: EC50
Report as: number unit

1) COc1ccc(F)c(-c2ccc(Cc3ccc(N4N=C(C#N)CC4CC(=O)O)cc3)c(C)c2)c1 (single isomer, unassigned) [Example 34, Isomer 1]; 150 nM
2) COc1ccc(F)c(-c2ccc(Cc3ccc(N4N=C(C#N)CC4CC(=O)O)cc3)c(C)c2)c1 (single isomer, unassigned) [Example 34, Isomer 2]; 560 nM
3) Cc1ccccc1Oc1ccc(N2N=C(C#N)CC2CC(=O)O)cc1 (single isomer, unassigned) [Example 3, Isomer 1]; 37 nM
4) COc1ccc(OC)c(-c2ccc(Cc3ccc(N4N=C(C#N)CC4CC(=O)O)cc3)c(C)c2)c1 (single isomer, unassigned) [Example 49, Isomer 1]; 225 nM
5) COc1ccc(F)c(-c2ccc(Cc3ccc(N4N=C(C(=O)O)[C@@H](C)[C@@H]4CC(=O)O)cc3)c(C)c2)c1; 6620 nM

-- ask hGPR40 (Homo sapiens) / EC50 / COc1ccc(F)c(-c2ccc(Cc3ccc(N4N=C(C(F)(F)F)C(C5CC5)C4CC(=O)O)cc3)c(C)c2)c1 (single isomer, unassigned) [Example 43, Isomer 1] : value?
-- reply 3280 nM

-- ask hGPR40 (Homo sapiens) / EC50 / COc1ccc(F)c(-c2ccc(Cc3ccc(N4N=C(C#N)C(C)C4CC(=O)O)cc3)c(C)c2)c1 (single isomer, unassigned) [Example 52, Isomer 1] : value?
-- reply 1050 nM

====

Subject Of Test: hGPR40 (Homo sapiens)
Construct: 3x FLAG
Assay Name: FDSS-Based Intracellular Calcium Assay
Particulars: cells expressing GPR40, intracellular Ca2+ response
Measure: pEC50
pEC50 field: float, defined as -log10 of concentration (mol/L).

As a guide, the following entries are already answered.
1) COc1cc(-c2ccc(Cc3ccc(N4N=C(C(F)(F)F)[C@@H](C)[C@@H]4CC(=O)O)cc3)c(C)c2)c(F)cn1; 6.68
2) COc1ccc(F)c(-c2ccc(Cc3ccc(N4N=C(C(F)(F)F)C(c5ccccc5)C4CC(=O)O)cc3)c(C)c2)c1 (single isomer, unassigned) [Example 47, Isomer 1]; 6.05
3) COc1ccc(F)c(-c2ccc(Cc3ccc(N4N=C(C(F)(F)F)CC4(C)CC(=O)O)cc3)c(C)c2)c1 (single isomer, unassigned) [Example 51, Isomer 2]; 5.83
4) COc1ccc(Cc2ccc(N3N=C(C#N)CC3CC(=O)O)cc2)c(C)c1 (racemic); 6.82

-- ask What pEC50 value was documented for this molecule, COc1ccc(F)c(-c2ccc(Cc3ccc(N4N=C(c5cccc(Cl)c5)[C@@H](C)[C@@H]4CC(=O)O)cc3)c(C)c2)c1 (single isomer, unassigned) [Example 68, isomer 2] ?
-- reply 5.07

-- ask What pEC50 value was documented for this molecule, Cc1cc(-c2cc(C#N)ccc2F)ccc1Cc1ccc(N2N=C(C#N)CC2CC(=O)O)cc1 (racemic) ?
-- reply 6.70

====

Subject Of Test: hGPR40 (Homo sapiens, UniProt O14842)
Construct: 3x FLAG
Assay Name: FDSS-Based Intracellular Calcium Assay
Particulars: cells expressing GPR40, intracellular Ca2+ response
Measure: EC50

1. Cc1ccccc1Oc1ccc(N2N=C(C(F)(F)F)CC2CC(=O)O)cc1 (single isomer, unassigned) [Example 11, Isomer 2]; 1850 nM
2. COc1cc(-c2ccc(Cc3ccc(N4N=C(C(F)(F)F)[C@@H](C)[C@@H]4CC(=O)O)cc3)c(C)c2)ccn1; 430 nM
3. COc1ccc(F)c(-c2ccc(Cc3ccc(N4N=C(C(F)(F)F)C(CC#N)C4CC(=O)O)cc3)c(C)c2)c1 (single isomer, unassigned) [Example 54, isomer 1]; 380 nM
4. C[C@@H]1C(C(F)(F)F)=NN(c2ccc(CCCc3ccccc3)cc2)[C@H]1CC(=O)O; 5760 nM

-- ask What EC50 value was documented for this compound, COc1cc(-c2ccc(Cc3ccc(N4N=C(C(F)(F)F)CC4CC(=O)O)cc3)c(C)c2)c(F)cn1 (single isomer, unassigned) [Example 27, Isomer 2] ?
-- reply 150 nM

-- ask What EC50 value was documented for this compound, COc1ccc(F)c(-c2ccc(Cc3ccc(N4N=C(c5ccn(C)n5)C(C)C4CC(=O)O)cc3)c(C)c2)c1 (single isomer, unassigned) [Example 55, Isomer 2] ?
-- reply 230 nM

-- ask What EC50 value was documented for this compound, COCC1C(C(F)(F)F)=NN(c2ccc(Cc3ccc(-c4cc(OC)ccc4F)cc3C)cc2)C1CC(=O)O (single isomer, unassigned) [Example 48, Isomer 2] ?
-- reply 920 nM

-- ask What EC50 value was documented for this compound, COc1ccc(F)c(-c2ccc(Cc3ccc(N4N=C(C(F)(F)F)C(CO)C4CC(=O)O)cc3)c(C)c2)c1 (single isomer, unassigned) [Example 53, Isomer 2] ?
-- reply 1100 nM

-- ask What EC50 value was documented for this compound, Cc1cc(Cc2ccc(N3N=C(C(F)(F)F)CC3CC(=O)O)cc2)ccc1Br (racemic) ?
-- reply 455 nM

-- ask What EC50 value was documented for this compound, COc1ccc(F)c(-c2ccc(Cc3ccc(N4N=C(c5ccc(F)cc5)[C@@H](C)[C@@H]4CC(=O)O)cc3)c(C)c2)c1 (single isomer, unassigned) [Example 67, isomer 1] ?
-- reply 9 nM

-- ask What EC50 value was documented for this compound, Cc1cc(-c2ccncc2)ccc1Cc1ccc(N2N=C(C(F)(F)F)[C@@H](C)[C@@H]2CC(=O)O)cc1 ?
-- reply 8330 nM

-- ask What EC50 value was documented for this compound, O=C(O)CC1CC(C(F)(F)F)=NN1c1ccc(OCc2ccccc2)cc1 (racemic) ?
-- reply 1960 nM

-- ask What EC50 value was documented for this compound, COc1cccc(-c2ccc(Cc3ccc(N4N=C(C(F)(F)F)CC4CC(=O)O)cc3)c(C)c2)c1 (single isomer, unassigned) [Example 26, Isomer 2] ?
-- reply 120 nM

-- ask What EC50 value was documented for this compound, COc1ccc(F)c(-c2ccc(Cc3ccc(N4N=C(c5ncccn5)C(C)C4CC(=O)O)cc3)c(C)c2)c1 (single isomer, unassigned) [Example 61, isomer 2] ?
-- reply 460 nM

-- ask What EC50 value was documented for this compound, COc1ccc(OC)c(-c2ccc(Cc3ccc(N4N=C(C#N)CC4CC(=O)O)cc3)c(C)c2)c1 (single isomer, unassigned) [Example 49, Isomer 2] ?
-- reply 3110 nM

-- ask What EC50 value was documented for this compound, COc1ccc(Cl)c(-c2ccc(Cc3ccc(N4N=C(C#N)CC4CC(=O)O)cc3)c(C)c2)c1 (racemic) ?
-- reply 120 nM

-- ask What EC50 value was documented for this compound, COc1ccc(F)c(-c2ccc(Cc3ccc(N4N=C(C(F)(F)F)C(C)(C)C4CC(=O)O)cc3)c(C)c2)c1 (single isomer, unassigned) [Example 50, Isomer 2] ?
-- reply 1340 nM

-- ask What EC50 value was documented for this compound, N#CC1=NN(c2ccc(Oc3ccccc3Br)cc2)C(CC(=O)O)C1 (racemic) ?
-- reply 180 nM

-- ask What EC50 value was documented for this compound, COc1cc(-c2ccc(Oc3ccc(N4N=C(C(F)(F)F)CC4CC(=O)O)cc3)c(C)c2)c(F)cn1 (single isomer, unassigned) [Example 15, Isomer 2] ?
-- reply 530 nM

-- ask What EC50 value was documented for this compound, Cc1cc(Br)c(F)cc1Oc1ccc(N2N=C(C(F)(F)F)CC2CC(=O)O)cc1 (racemic) ?
-- reply 230 nM

-- ask What EC50 value was documented for this compound, COc1ccc(F)c(-c2ccc(Cc3ccc(N4N=C(c5cc(C)on5)[C@@H](C)[C@@H]4CC(=O)O)cc3)c(C)c2)c1 (single isomer, unassigned) [Example 69, isomer 2] ?
-- reply 2560 nM

-- ask What EC50 value was documented for this compound, COc1ccc(F)c(-c2ccc(Cc3ccc(N4N=C(C(F)(F)F)CC4CC(=O)O)cc3)cc2C)c1 (single isomer, unassigned) [Example 22, Isomer 1] ?
-- reply 770 nM

-- ask What EC50 value was documented for this compound, COCC1C(C(F)(F)F)=NN(c2ccc(Cc3ccc(-c4cc(OC)ccc4F)cc3C)cc2)C1CC(=O)O (single isomer, unassigned) [Example 48, Isomer 1] ?
-- reply 170 nM

-- ask What EC50 value was documented for this compound, COc1ccc(F)c(-c2ccc(Oc3ccc(N4N=C(C(F)(F)F)CC4CC(=O)O)cc3)cc2C)c1 (single isomer, unassigned) [Example 16, Isomer 2] ?
-- reply 340 nM
